- System: Plasmodium berghei
- runDescription: Screen against P. berghei liver stage (PbLuc), transformed with Luciferase, at 10uM
- Type: functional, HepG2
- conditionContext: tested at 10 uM
The campaign covered roughly 69,000 compounds. About 8,600 (12%) showed an effect of 50% or more. For the sample, strong results were picked, then their nearest neighbours and some compounds at random.
assayMetric: INHIBITION
Don't forget the unit after the number, please.

# annotated cases, reported INHIBITION shown
Checklist item: INHIBITION tested on Plasmodium berghei, entry CC(NC(=O)CN(C)S(C)(=O)=O)c1nnc2n1CCCCC2 (centres undefined) , value?
38.6%

Checklist item: INHIBITION tested on Plasmodium berghei, entry O=C1CN(c2ccc(CNC(=O)NCC3CCOC3)cc2)CCN1 (centres undefined) , value?
0.411%

Checklist item: INHIBITION tested on Plasmodium berghei, entry CC1COCCN1C(=O)Cc1cc(Cl)c2c(c1)OCCCO2 (centres undefined) , value?
0.348%

Checklist item: INHIBITION tested on Plasmodium berghei, entry Cc1cc(N2CCOC(c3ccc(N(C)C)cn3)C2)nc(N)n1 (centres undefined) , value?
-0.6%

Return reported INHIBITION values for all items listed beneath this line.
1. CN(C)C(=O)Cn1cc(C(=O)NCCc2cccc(Cl)c2Cl)nn1
2. Cc1ccccc1C1(C(=O)NCCN(C)C)CCOCC1
3. CC(C)N1CCOC(Cc2nn3c(Cc4ccccc4)nnc3s2)C1 (centres undefined)
4. O=C(NCc1ccc2c(c1)CCCO2)c1ccccc1C1CCNC1 (centres undefined)
5. COCC(=O)N1CCC(c2cc3nc(C)cc(C(F)(F)F)n3n2)CC1

-8.4%
18.9665%
45.5%
-26.1%
20.15%

====

- Tested on: Plasmodium berghei
- runDescription: Screen against P. berghei liver stage (PbLuc), transformed with Luciferase, at 10uM
- Format: functional, HepG2
- conditionContext: tested at 10 uM
Among all 69,000 compounds or so, about 8,600 (12%) showed an effect of 50% or more. Many of the other results were omitted from the sample, so strong results are more common in it than they were.
The label is Yes for INHIBITION below 20% and No for INHIBITION equal to or exceeding 20%.

// below: answered molecules
Would you kindly verify if INHIBITION of CN1CCCc2cc(NC(=O)N3CCOC(C(N)=O)C3)ccc21 (stereo unspecified) is strictly less than 20%?
No

Would you kindly verify if INHIBITION of Cc1cc(C(=O)NC2CCN(c3nnc(C)c(C)c3C#N)CC2)no1 is strictly less than 20%?
Yes

Would you kindly verify if INHIBITION of CCNc1cc2c(nn1)CCN(C(=O)c1cccc3c1OCO3)C2 is strictly less than 20%?
Yes

Would you kindly verify if INHIBITION of NC(=O)C1CN(C(=O)Nc2ccccc2-c2cccs2)CCO1 (stereo unspecified) is strictly less than 20%?
No

Would you kindly verify if INHIBITION of COc1cccc(C2CC(=O)Nc3nc(N4CCCCC4)sc32)c1OC (stereo unspecified) is strictly less than 20%?
Yes

***
Would you kindly verify if INHIBITION of Cc1[nH]nc(CCC(=O)N2C[C@@H]3CC[C@H]2CN(C(=O)N(C)C)C3)c1C is strictly less than 20%?
No

Would you kindly verify if INHIBITION of COc1ccc(-c2noc(C(CC(C)C)N3CCCCC3=O)n2)cn1 (stereo unspecified) is strictly less than 20%?
No

Would you kindly verify if INHIBITION of Cc1cccc(C(Nc2nccc(-c3ccc(C)nc3C)n2)C2CC2)n1 (stereo unspecified) is strictly less than 20%?
Yes

====

- Tested on: Plasmodium berghei
- runDescription: Screen against P. berghei liver stage (PbLuc), transformed with Luciferase, at 10uM
- Format: functional, HepG2
- conditionContext: tested at 10 uM
The campaign covered roughly 69,000 compounds. About 8,600 (12%) showed an effect of 50% or more. The sample holds strong results, similar compounds and a random draw of the others, so the mix is not that of the screen.
The label is Satisfied for INHIBITION below 20% and Not satisfied for INHIBITION equal to or exceeding 20%.

Would you kindly verify if INHIBITION of CN(Cc1ccco1)C1COC2(CCN(Cc3nccs3)CC2)C1 (stereo unspecified) is strictly less than 20%?
Not satisfied

Would you kindly verify if INHIBITION of c1csc(-c2nc(CN3CCCC3Cn3cccn3)co2)c1 (stereo unspecified) is strictly less than 20%?
Satisfied

Would you kindly verify if INHIBITION of Cc1noc(C)c1C(=O)N1C[C@@H]2COC[C@]2(COc2ccccn2)C1 is strictly less than 20%?
Satisfied

Note: attention shifts to another entry.
Would you kindly verify if INHIBITION of O=C(N1CCCC1)N1CCC2(CCN(Cc3ccccn3)C2=O)C1 (stereo unspecified) is strictly less than 20%?
Satisfied

====

Would you kindly list INHIBITION for each of these molecules?
- Tested on: Plasmodium berghei
- runDescription: Screen against P. berghei liver stage (PbLuc), transformed with Luciferase, at 10uM
- Format: functional, HepG2
- conditionContext: tested at 10 uM
The whole screen tested about 69,000 compounds, of which about 8,600 (12%) showed an effect of 50% or more. Shown is part of a subset that was picked to be rich in strong results.
Don't forget the unit after the number, please.

Checklist item: INHIBITION tested on Plasmodium berghei, entry COCCN1CCN(Cc2noc(C3CC3)n2)CC1C (centres undefined) , value?
20.1%

Return reported INHIBITION values for all items listed beneath this line.
1. CCc1[nH]ncc1C(=O)N1CCOC(c2nc(C)n[nH]2)C1 (centres undefined)
2. COCCc1noc(C2CCCN(c3nc(N)nc4c3CCCC4)C2)n1 (centres undefined)
3. Cc1cc(C)n(C2CCN(c3ncnc4c3CCC4)C2)n1 (centres undefined)
4. Cn1ccc(C(=O)N2CCC3(CC2)CC(Nc2cnccn2)CO3)n1 (centres undefined)
5. Cc1ccccc1CC(C)(C)NC(=O)c1cccc(OCC(N)=O)c1

1. 25.6%
2. 65.2%
3. 36.1%
4. -4.26%
5. 36.3%

Return reported INHIBITION values for all items listed beneath this line.
1. CC(=O)NC1CCN(c2nc(N)nc3c2CCCC3)C1 (centres undefined)
2. Cc1nc(CNCC2CN(C3CC3)CCO2)cs1 (centres undefined)
3. N#Cc1ccsc1N1CCC(Sc2ncc[nH]2)C1=O (centres undefined)
4. CCc1nc2c(N3CCCC(c4nccn4CCOC)C3)ncnc2o1 (centres undefined)
5. COc1ccc(CN2CCC3(CCCN(C)C3=O)C2)c(OC)c1C (centres undefined)
6. Cc1ccc(C(=O)NC2CCN(Cc3noc(C(C)C)n3)CC2)s1

1: 46.6%; 2: 27.4%; 3: 27.6%; 4: 29.1%; 5: 5.75%; 6: 7.44%

Return reported INHIBITION values for all items listed beneath this line.
1. COCCc1noc(CN2CCCC2c2noc(C3CC3)n2)n1 (centres undefined)
2. Cc1cnc(N2C[C@@H]3CN(C4CCOC4)CCC[C@]3(C(=O)O)C2)nc1 (some centres undefined)
3. Cc1cc(N2CCC(NC(=O)C3CC3)CC2)nc(-c2ccncc2)n1
4. Cc1ccc(C(=O)NC2CCN(Cc3nc(CC(C)C)no3)CC2)s1
5. CC1CCN(C(=O)Cn2nc(Br)nc2Br)CC1
6. COCCCN(C)C1CCCN(Cc2noc(C3CC3)n2)C1 (centres undefined)

1: -14.1%; 2: 24.9%; 3: 23.4%; 4: 18.6%; 5: -12.7%; 6: 44.1%

Return reported INHIBITION values for all items listed beneath this line.
1. Cc1ccccc1CC(C)(C)NC(=O)COc1cccc(C(N)=O)c1
2. COCCc1noc(C2CCCN(c3ncnc4c3CCC4)C2)n1 (centres undefined)
3. CC(C)Cc1noc(CN2CCC(NC(=O)c3cccs3)CC2)n1
4. Cc1ccccc1CC(C)(C)NC(=O)CCOc1cccc(C(N)=O)c1

1: 38%; 2: 78.8%; 3: 53.5%; 4: 69.7%

Return reported INHIBITION values for all items listed beneath this line.
1. COCCn1ccnc1C1CCCN(c2ncnc3c(C)csc23)C1 (centres undefined)
2. CN(c1ccncn1)C1CC2(CCN(C(=O)Cc3cccs3)C2)C1 (centres undefined)

-0.529%
51.5%

====

- System: Plasmodium berghei
- runDescription: Screen against P. berghei liver stage (PbLuc), transformed with Luciferase, at 10uM
- Format: functional, HepG2
- conditionContext: tested at 10 uM
Hit rate of the full screen: of about 69,000 compounds, about 8,600 (12%) showed an effect of 50% or more. This is one part of a sample in which strong results are shown more often than they occur.
Would you kindly list INHIBITION for each of these compounds?
One number for each entry, in %.

# annotated cases, reported INHIBITION shown
May I ask what INHIBITION has been recorded for COc1ccc(CN2C[C@@H]3C[C@H](C(=O)Nc4cccnc4)[C@H](C2)O3)cc1 ?
28.7

May I ask what INHIBITION has been recorded for Cc1ccc2nc(C(=O)N3C[C@@H](C(=O)O)[C@H](c4cccnc4)C3)cn2c1 ?
-10.1

May I ask what INHIBITION has been recorded for Cc1ncsc1CCNC(=O)Cn1nc(C)n(Cc2ccccc2)c1=O ?
-171

May I ask what INHIBITION has been recorded for Cc1cc(F)ccc1NS(=O)(=O)c1cc2c(c(C(=O)O)c1)OCCO2 ?
25.1

May I ask what INHIBITION has been recorded for CNC(=O)[C@H]1C[C@H]2CN(Cc3ccc(C)cc3)C[C@@H]1O2 ?
9.65

May I ask what INHIBITION has been recorded for Cn1nnc2c1CCN(Cc1ccncc1)C2COCC1CC1 (stereo not given) ?
35.4

Return reported INHIBITION values for all items listed beneath this line.
1. CCS(=O)(=O)CC(C)N(C)C(=O)COc1ccccc1C#N (stereo not given)
2. Cc1ccc(CN2C[C@@H]3C[C@H](C(=O)Nc4cccnc4)[C@H](C2)O3)cc1
3. CC(C)CCN1C[C@@H]2C[C@H](C(=O)Nc3cccnc3)[C@H](C1)O2

1: -29.7; 2: 64.9; 3: 41.6

May I ask what INHIBITION has been recorded for COc1nc(C)ccc1CNC(=O)NC(c1ncc(C)s1)C1CC1 (stereo not given) ?
-21.1

Just for reference, ChEMBL document CHEMBL4513216 is where these values come from.
